- SYSTEM NAME: T1, HLA-A*02:01 (human)
- T1 construct: MHC class I monomer made peptide-receptive by UV cleavage of a UV-sensitive ligand; also called peptide-receptive MHC molecules
- PROTOCOL SUMMARY: UV-ligand exchange ELISA (anti-β2m), peptide exchange yield grade
MEASURE: peptide exchange yield

{"BINDER": "TAVGHALVL [peptide TAVGHALVL (SEQ ID NO: 114)]", "VALUE MEASURED": "10 to 20%"}
{"BINDER": "YQFDKVGILTL [peptide YQFDKVGILTL (SEQ ID NO: 149)]", "VALUE MEASURED": "50 to 75%"}
{"BINDER": "MISELEVRL [peptide MISELEVRL (SEQ ID NO: 70)]", "VALUE MEASURED": "50 to 75%"}
{"BINDER": "FLLGSEIKL [peptide FLLGSEIKL (SEQ ID NO: 53)]", "VALUE MEASURED": "50 to 75%"}
{"BINDER": "VLVDDDGIKVV [peptide … (SEQ ID NO: 159)]", "VALUE MEASURED": "20 to 50%"}
{"BINDER": "ILDDHLSRV [peptide ILDDHLSRV (SEQ ID NO: 9)]", "VALUE MEASURED": "20 to 50%"}
{"BINDER": "KLDIKVETV [peptide KLDIKVETV (SEQ ID NO: 88)]", "VALUE MEASURED": "≥ 75%"}
{"BINDER": "SLAPTPVSA [peptide SLAPTPVSA (SEQ ID NO: 38)]", "VALUE MEASURED": "20 to 50%"}
{"BINDER": "AMADKMDMSL [peptide AMADKMDMSL (SEQ ID NO: 58)]", "VALUE MEASURED": "20 to 50%"}
{"BINDER": "YLFDIAVSM [peptide YLFDIAVSM (SEQ ID NO: 73)]", "VALUE MEASURED": "50 to 75%"}
{"BINDER": "GLDDGPDFL [peptide GLDDGPDFL (SEQ ID NO: 66)]", "VALUE MEASURED": "20 to 50%"}
{"BINDER": "KLYERCEVV (also called KLYERCEVV) [peptide KLYERCEW (SEQ ID NO: 47)]", "VALUE MEASURED": "20 to 50%"}
{"BINDER": "GLLESPSIFNFTA [peptide GLLESPSIFNFTA (SEQ ID NO: 36)]", "VALUE MEASURED": "50 to 75%"}
{"BINDER": "VLDGVLMEL [peptide VLDGVLMEL (SEQ ID NO: 24)]", "VALUE MEASURED": "50 to 75%"}
{"BINDER": "KLGDFGLLVEL [peptide KLGDFGLLVEL (SEQ ID NO: 125)]", "VALUE MEASURED": "≥ 75%"}
{"BINDER": "QVDEVVDIMRV (also called QVDEVVDIMRV) [peptide … (SEQ ID NO: 80)]", "VALUE MEASURED": "20 to 50%"}
{"BINDER": "KLLDLTVRI [peptide KLLDLTVRI (SEQ ID NO: 35)]", "VALUE MEASURED": "50 to 75%"}
{"BINDER": "KLLKLFQGV [peptide KLLKLFQGV (SEQ ID NO: 61)]", "VALUE MEASURED": "50 to 75%"}
{"BINDER": "GLLKPGLNVVL (also called …) [peptide GLLKPGLNVVL (SEQ ID NO: 90)]", "VALUE MEASURED": "50 to 75%"}
{"BINDER": "FLDASDPAL [peptide FLDASDPAL (SEQ ID NO: 48)]", "VALUE MEASURED": "20 to 50%"}
{"BINDER": "KLPSETIFVGC [peptide KLPSETIFVGC (SEQ ID NO: 154)]", "VALUE MEASURED": "50 to 75%"}
{"BINDER": "KLYSRLVYV [peptide KLYSRLVYV (SEQ ID NO: 96)]", "VALUE MEASURED": "20 to 50%"}
{"BINDER": "TLQPVDNSTISL [peptide TLQPVDNSTISL (SEQ ID NO: 117)]", "VALUE MEASURED": "20 to 50%"}
{"BINDER": "SLDDFLATA [peptide SLDDFLATA (SEQ ID NO: 100)]", "VALUE MEASURED": "50 to 75%"}
{"BINDER": "LLLDTVTMQV [peptide LLLDTVTMQV (SEQ ID NO: 172)]", "VALUE MEASURED": "50 to 75%"}
{"BINDER": "ALSNVIHKV [peptide ALSNVIHKV (SEQ ID NO: 40)]", "VALUE MEASURED": "20 to 50%"}
{"BINDER": "SLFDVSHML [peptide SLFDVSHML (SEQ ID NO: 115)]", "VALUE MEASURED": "50 to 75%"}
{"BINDER": "KTLGKLWRL [peptide KTLGKLWRL (SEQ ID NO: 64)]", "VALUE MEASURED": "20 to 50%"}
{"BINDER": "ALAAARVEL [peptide ALAAARVEL (SEQ ID NO: 17)]", "VALUE MEASURED": "50 to 75%"}
{"BINDER": "YALDLSTFL [peptide YALDLSTFL (SEQ ID NO: 105)]", "VALUE MEASURED": "50 to 75%"}
{"BINDER": "GLIDEVMVL (also called CYP2W1-001) [peptide GLIDEVMVL (SEQ ID NO: 22)]", "VALUE MEASURED": "50 to 75%"}
{"BINDER": "ILLTIKDDTIYL [peptide ILLTIKDDTIYL (SEQ ID NO: 104)]", "VALUE MEASURED": "50 to 75%"}
